Provide the recorded apparent KD of MS2 coat protein for the entries that follow.
Test system: MS2 coat protein
Assay: apparent KD of MS2 coat protein; designed switch direction (-1 OFF switch, 1 ON switch): -1; higher = weaker reporter binding
Details: Eterna round: R95; input ligand: none
Answers are plain numbers, in nM.

Quick batch: apparent KD of MS2 coat protein for everything below.
1. GAGGAGCAAGGAUAUACGAGGAGAGGGAAGAGAGGAGAGAGACAUGAGGAUCACCCAUGUAGAAGGUGCAAGGA [JR_Exclu2_Sub092] (puzzle: Exclusion 2)
2. UUUUUCGAACAAGCAUCGAACAUGAGGAUCACCCAUGUAGGUAGAUUUGAGUAGGUAUGGAAGUAAGCUCGUCUUAU [JR_SV3TOV1_Sub080] (puzzle: Sensor v3, turn-off variant 1)

Found:
[43.8, 53.9]

Quick batch: apparent KD of MS2 coat protein for everything below.
1. AAAUAACAAGCGAGAUCCUACAUGAGGAUCACCCAUGUGCUCGUCUUAAGAAGUACUAUCACGAAAGUGAUAGUACA [Mat - Sensor v3 - turn-off var 1 - Eli Mod - D68] (puzzle: Sensor v3, turn-off variant 1)
2. GAUUGACAUGAGGAUCACCCAUGUGAGGAUAUCGGCCGGACCGUGUUAGCUUCCGUCGCGAGAAGGCGCAUAGG [Exclusion 1 V38] (puzzle: Exclusion 1)
3. GAUUAUGCAAGCUUUUGGGACAUGAGGAUCACCCAUGUUCGUCUUAUUGAUCUAGGUACGCUGACGUACCUAGAUCU [JL-sv1-2.32 Brourd mod] (puzzle: Sensor v3, turn-off variant 1)
4. CGAAGUAGAAACCGAUCCUACAUGAGGAUCACCCAUGUAGCAAGACGUGCACGCGAAGCUCGUCAGACUACCAGAAU [salish99_TOv1_r3_015] (puzzle: Sensor v3, turn-off variant 1)
5. AGUACUAACACGGAAGUGUUAGUACUAUAAGCUUGUGUUACAUGAGGAUCACCCAUGUCCUCAUAAGCUCGUCUUAA [Mat - Sensor v3 - Turn-off var 2 - D70] (puzzle: Sensor v3, turn-off variant 2)
6. GGUUGGUGAGGAUAUACAUGAGGAUCACCCAUGUGAGAGAAAGAAGUGAGGAAGAAAAGUAGAAGGCGCUGACG [salish99_ex3_r3_054] (puzzle: Exclusion 3)
7. UUUAAUUUUUUUUUUUUACAAGCUUUUUGCUCGUCUUAUACAUGAGGAUCACCCAUGUGAGUGGAGGGUAAAUUAUC [JMF 88] (puzzle: Sensor v3, turn-off variant 2)

Found:
1: 14.7; 2: 36.7; 3: 17.6; 4: 430; 5: 36.4; 6: 54.2; 7: 16.3

Quick batch: apparent KD of MS2 coat protein for everything below.
1. CUGAGCAGACGGAGAUCCAACAUGAGGAUCACCCAUGUCUCAAAAGCUUCUUGCUCGUCUUAUCCUCCUCUGUUCUC [Maeronqu] (puzzle: Sensor v3, turn-off variant 1)
2. UGUACUAUGCGAGCUGACUUGCGUAGUGCAGCAGGUGGAACAUGAGGAUCACCCAUGUCCUCAUUUGCUCGUCUUAU [SL-sv3-2.03 JL mod] (puzzle: Sensor v3, turn-off variant 2)
3. GCAGGCGUCUUGGCUCGUCUUAUUUUGAGAGGAUUGAUAACAUGAGGAUCACCCAUGUUUGUGGGAGAGUUGCAGUG [JR_SV3TOV2_Sub016] (puzzle: Sensor v3, turn-off variant 2)
4. ACAAGCUUAUUGCUCGGGUACAUGAGGAUCACCCAUGUUAGUGAUUAUAGAGAAUGUGUUGACGUGCGCUGCAGGUU [JR_SV3TOV1_Sub079] (puzzle: Sensor v3, turn-off variant 1)
5. AAAAAGCGAGGAUAUACAUGAGGAUCACCCAUGUGAGGGCACCGCGGGCGCGGGACCGGUAGAAGGCGCAAAAA [Exc;s3-II] (puzzle: Exclusion 3)
6. AGAAAGUCAGGAUAUACAUGAGGAUCACCCAUGUAAAGAAAAGAAAGGGAAGGAAGAGGUAGAAGGGACAAGAA [JR_Exclu3_Sub031] (puzzle: Exclusion 3)
7. GGAAAGGUAGGAUAUACGAAGAAAAAGGGUAGAAGAAUAACACAUGAGGAUCACCCAUGUAGAAGGACCAAAGC [Mat - Exclusion 2 - Mod of my Tesla design - D14] (puzzle: Exclusion 2)

Found:
1. 33.1
2. 41.2
3. 133
4. 92.2
5. 38.5
6. 23
7. 25.8
